Target: GABARAP, O95166
Sequence (O95166 whole entry, the tested form may be a part): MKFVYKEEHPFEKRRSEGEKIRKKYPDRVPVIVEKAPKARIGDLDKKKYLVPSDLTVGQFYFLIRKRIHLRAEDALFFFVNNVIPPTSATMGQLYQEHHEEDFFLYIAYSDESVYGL
Test: median log2 fold change of GCK-ALFA target abundance (FLAG IP / Myc IP barcode read proportion) (log2 ratio); each designed protein is fused to an ALFA-tag nanobody in HEK293 cells to bring the named protein to FLAG-tagged glucokinase (GCK); Myc marks an untargeted standard; higher = target protein stabilised (more abundant)
Settings: target protein: 3xFLAG-MCP-GCK-ALFA reporter; HEK293 landing pad (RPLP)
Whole data set: some 4,500 sequences, median “median log2 fold change of GCK-ALFA target abundance (FLAG IP / Myc IP barcode read proportion)” near 0.078, cut for the lowest 2% near -0.6. Shown is part of a subset that was picked to be rich in the lowest values.

binder	median log2 fold change
GBRAP_184_5122 (protein) DVVHRAVEGEKAEELIAASRAVVEEAAAAGKRLHLSVFAKNMSVEEIIEVIKAMGELKARYPQVSVTVDVLDELSEEEIDKVLKAADEAGVRVVIAIPEE	0.0426
GBRAP_166_4874 (protein) GLEELLEKARKEIRELLKKASEADDEERVELYIEIGEIIEELREAGAPKEAILELVREALKEAKELGLDVRLLAGIIINVTDFDEEEIDELDKIVEEVLK	0.0131
